- Test system: NCI-H522 lung
- Assay explanation: NCI tumour cell line growth inhibition, 48 h

| Molecule | Lt gt eq | TGI / µM |
| --- | --- | --- |
| CCN(CC)CC(=O)O[C@]1(CC)C(=O)OCc2c1cc1n(c2=O)Cc2cc3ccccc3nc2-1 | = | 1.44 |
| COC(=O)CCc1cc(O)c2c(c1)C(C(=O)OC)C(c1ccc(O)c(O)c1)O2 (stereo not given) | > | 100 |
| Fc1ccc(-c2nn3ncccc3c2-c2ccnc(Nc3ccc4c(c3)OCCO4)n2)cc1 | = | 10.7 |
| N.N.O=C([O-])P(=O)([O-])[O-].[Na+].[Pt+4] | > | 100 |
| CCOc1ccc2c(c1)[n+]([O-])c(-c1nc3ccccc3s1)c(N)[n+]2[O-] | = | 63.3 |
| CN(C)CCCN1c2ccccc2Sc2cnccc21 | > | 100 |
| Cc1ccc(NC(=S)N/N=C(/c2ccccc2)c2ccccn2)cc1 | = | 24.4 |
| CNc1nc2n(CCO)c(-c3ccccc3)c(-c3ccccc3)nc-2c(=O)n1 | > | 50 |
| O=C(O)[C@@H]1CSCN1C(=O)[C@@H]1CCC(=S)N1 | > | 100 |
| COc1ccc(/C(Cl)=C(\C=O)c2ccc([N+](=O)[O-])cc2)cc1 | > | 46.8 |

====

- System: MALME-3M melanoma
- Assay explanation: NCI tumour cell line growth inhibition, 48 h
Entries and their TGI values follow.

| Compound | TGI |
| --- | --- |
| Cc1ccc(C(=O)Nc2ccc(CN3CCN(C)CC3)c(C(F)(F)F)c2)cc1C#Cc1cnc(N)c2ccccc12 | 0.951 µM |
| CC1=CC(=O)N(n2c(Cc3ccccc3)n[nH]c2=O)C1=O | > 100 µM |
| CSC1=N/C(=C\c2ccccc2)C(=O)N1CN1CCCCC1 | > 100 µM |
| O=C(O)Cc1cc(O)c(CC(=O)O)cc1O | > 100 µM |
| NC(CCC(=O)O)C(=O)N1CCN(c2nc(N3CCCC3)c3nc(Cl)c(NCc4ccccc4)nc3n2)CC1 (stereo not given) | 33.6 µM |
| Cc1[nH]c2ccccc2c1C1Cc2ccccc2N1C(=O)/C(Cl)=C/c1ccccc1 (stereo not given) | > 100 µM |
| COc1cc2c(cc1OC)CCc1cc(OC)c(OC)cc1CC2 | > 100 µM |
| Cc1ccc(C)c(COCCOCn2ccc(N)nc2=O)c1 | > 100 µM |
| COc1ccc(N2C(=O)C3ON(C(C(N)=O)c4ccccc4)C(c4cc5ccccc5c5ccccc45)C3C2=O)cc1 (stereo not given) | > 50 µM |
| O=c1[nH]nc(Cc2ccccc2)[nH]1 | > 100 µM |

====

- Test system: NCI/ADR-RES ovarian
- Assay explanation: NCI tumour cell line growth inhibition, 48 h

| Compound | TGI |
| --- | --- |
| CC1(C)N=C(N)N=C(N)N1c1ccc(OCc2ccc(S(=O)(=O)F)c(Cl)c2)c(Cl)c1 | > 100 µM |
| Cn1c2ccccc2c2c3[nH]c(=O)[nH]c(=O)c3c3c4ccccc4n(C)c3c21 | 17 µM |
| N#Cc1cccc(NC(=O)c2cc(-c3ccc(F)cc3F)ccc2O)c1 | 6.84 µM |
| CC(C)(C)C1=CC(=C(c2ccc(-c3c4nc(c(-c5ccc(C(=C6C=C(C(C)(C)C)C(=O)C(C(C)(C)C)=C6)c6cc(C(C)(C)C)c(O)c(C(C)(C)C)c6)cc5)c5ccc([nH]5)c(-c5ccc(C(=C6C=C(C(C)(C)C)C(=O)C(C(C)(C)C)=C6)c6cc(C(C)(C)C)c(O)c(C(C)(C)C)c6)cc5)c5nc(c(-c6ccc(C(=C7C=C(C(C)(C)C)C(=O)C(C(C)(C)C)=C7)c7cc(C(C)(C)C)c(O)c(C(C)(C)C)c7)cc6)c6ccc3[nH]6)C=C5)C=C4)cc2)c2cc(C(C)(C)C)c(O)c(C(C)(C)C)c2)C=C(C(C)(C)C)C1=O | > 100 µM |
| CC(C)CCCC(=O)CCCCCCC(=O)CCN(O)C(=O)C(N)CO (configuration not stated) | 38.4 µM |
| O=C(O)[C@@H]1CSCN1C(=O)[C@@H]1CCC(=S)N1 | > 100 µM |
| COc1cc2c3c(n(CCCCOC(=O)C(Cl)(Cl)Cl)c(=O)c2cc1OC)-c1cc2c(cc1C3=O)OCO2 | > 100 µM |
| CC1=CC(=O)N(n2c(Cc3ccccc3)n[nH]c2=O)C1=O | > 100 µM |
| Cc1cc(C)n(C2OC(CO)C(O)C(O)C2O)c(=S)c1C#N (configuration not stated) | > 100 µM |
| CS(=O)(=O)c1cc(=O)c2ccccc2s1 | 38.8 µM |
| COC(=O)c1c(C)[nH]c(/C=C2\N=C(c3ccc[nH]3)C=C2OC)c1C | 4.6 µM |
| Nc1nc(-c2cccc(Cl)c2)c(-c2ccc3ncccc3n2)s1 | > 25 µM |
| O=[N+]([O-])c1cccc2nc3ccccc3c(NCCC[N+]3([O-])CCOCC3)c12 | 39.2 µM |
| Cc1ccc(NC(=O)c2cccc(OP(=O)(O)Nc3ccc(C)cc3)c2)cc1 | > 100 µM |
| O=C1C=CC=C/C1=C1\N=C(c2ccccc2OCC(=O)c2ccc(Br)cc2)SS1 | > 100 µM |
| Clc1ccc(-c2c(C3=NCCCN3)nnn2-c2ccc(Cl)cc2)cc1 | > 86.4 µM |
| C/C=C(\C)CC/C=C/CO[Si](C)(C)C(C)(C)C | > 100 µM |

====

- Tested on: OVCAR-3 ovarian
- Assay explanation: NCI tumour cell line growth inhibition, 48 h; in the data active means GI50 below about 0.43 µM; inactive means the rest
Classes used: 1 for active, -1 for inactive

| Compound | Answer label |
| --- | --- |
| COc1ccc(OC)c(C(=O)c2oc3ccc(Br)cc3c2N)c1 | 1 |
| CCNc1cc2c(cc1O)CC[C@@H]1[C@@H]2CC[C@]2(C)[C@@H](O)CC[C@@H]12 | -1 |
| O=C(O)[C@@H]1CCCCN1Cc1cc2cc3c(cc2c2cc(OCc4ccccc4)ccc12)OCO3 | -1 |
| COc1cc2c3c(n(C)c(=O)c2cc1OC)-c1cc2c(cc1/C3=C\CNCCCN)OCO2 | -1 |
| Cc1ccc(C(=O)Nc2ccc(CN3CCN(C)CC3)c(C(F)(F)F)c2)cc1C#Cc1cnc(N)c2ccccc12 | -1 |
| O=C(/C(=C/c1cccc([N+](=O)[O-])c1)c1ccccc1)c1ccccc1 | -1 |
| c1cc[c]([Pb]([c]2ccccc2)[c]2ccccc2)cc1 | -1 |
| CCCCCN(CCCCC)CC(O)c1ccc(Cl)c2ccccc12 (stereo not given) | -1 |
| Cn1c2ccccc2c2c3[nH]c(=O)[nH]c(=O)c3c3c4ccccc4n(C)c3c21 | -1 |
| COC(=O)c1c(C)[nH]c(/C=C2\N=C(c3ccc[nH]3)C=C2OC)c1C | 1 |

====

- System: SNB-19 CNS
- Assay explanation: NCI tumour cell line growth inhibition, 48 h; in the data active = GI50 below about 0.43 µM; inactive = the rest
Outcome codes: active, inactive

| Molecule | Answer label |
| --- | --- |
| COc1ccc(-n2cc(-c3cc(OC)c(OC)c(OC)c3)[nH]c2=O)cc1Cl | inactive |
| C=C[C@H]1C[C@@H]2C[C@@H]3[C@H]4C/C=C\C(=O)NCCCC5NC(=O)C(=C(O)/C=C/[C@@H]4CC(=O)[C@H]3[C@@H]2[C@H]1C)C5=O (some centres not stated) | active |
| CC[CH2][Sn]([Cl])([Cl])[CH2]CC.Oc1ccccc1C=NCCN=Cc1ccccc1O | inactive |
| CCOC(=O)c1c(C)nc2c(c1N)/C(=C/c1ccc(OC)cc1)C(=O)N2Cc1ccc(F)cc1 | inactive |
| COC(=O)[C@H](Cc1c[nH]c2ccccc12)NC(=O)[C@@H](OC)[C@@H]1Cc2cc3cc(OC4CC(OC5CC(O)C(O)C(C)O5)C(O)C(C)O4)c(C)c(O)c3c(O)c2C(=O)[C@H]1OC1CC(OC2CC(OC3CC(C)(O)C(O)C(C)O3)C(O)C(C)O2)C(O)C(C)O1 (some centres not stated) | active |
| C=C1C(=O)O[C@H]2[C@H]1CC/C(COC(=O)c1cc3ccccc3s1)=C\CC[C@@]1(C)O[C@@H]21 | inactive |
| COc1ccc(OC)c(C(=O)c2oc3ccc(Br)cc3c2N)c1 | inactive |

====

Listed here: items and their measured TGI.
- Test system: HS 578T breast
- Assay explanation: NCI tumour cell line growth inhibition, 48 h

| Compound | Measurement target | TGI |
| --- | --- | --- |
| Cc1ccc(NC(=O)c2cccc(OP(=O)(O)Nc3ccc(C)cc3)c2)cc1 | HS 578T breast | > 100 µM |
| CCOC(=O)C1(C(=O)OCC)C[C@H](C)[C@](C)(O)C1 | HS 578T breast | > 100 µM |
| c1cc2c(ncc3cscc32)s1 | HS 578T breast | > 100 µM |
| O=C(N/N=C\c1cccc(O)c1)c1ccncc1 | HS 578T breast | > 100 µM |
| CCc1oc2ccccc2c1C(=O)c1cc(I)c(O)c(I)c1 | HS 578T breast | 7.41 µM |
| CCOC(=O)CN=C1NNS(=O)(=O)c2ccccc21 | HS 578T breast | > 100 µM |
| CC[C@H](C)[C@H]1O[C@]2(C=C[C@@H]1C)C[C@@H]1C[C@@H](C/C=C(\C)[C@@H](O[C@H]3C[C@H](OC)[C@@H](O[C@H]4C[C@H](OC)[C@@H](NC)[C@H](C)O4)[C@H](C)O3)[C@@H](C)/C=C/C=C3\CO[C@@H]4[C@H](O)C(C)=C[C@@H](C(=O)O1)[C@]34O)O2 | HS 578T breast | 6.56 µM |
| COc1ccc(C2C3=C(Nc4ncnn42)c2ccccc2OC3c2ccccc2)cc1 (centres undefined) | HS 578T breast | > 100 µM |
| O=C(O)[C@@H]1CCCCN1Cc1cc2cc3c(cc2c2cc(OCc4ccccc4)ccc12)OCO3 | HS 578T breast | 6.94 µM |
| CO[C@H]1C=C[C@@]23c4cc5c(cc4CO[C@]2(O)CN(C)[C@H]3C1)OCO5 | HS 578T breast | > 100 µM |
| Cn1cnc([N+](=O)[O-])c1[Se]c1nc(N)nc2c1ncn2C1OC(CO)C(O)C1O (centres undefined) | HS 578T breast | > 100 µM |
| O=c1[nH]c(=O)n(C2OC(CO)C(O)C(O)C2O)cc1F (centres undefined) | HS 578T breast | > 100 µM |
| CC(C)(C)[Si](C)(C)OCC1OC(n2cc(I)c(N)nc2=O)C(O[Si](C)(C)C(C)(C)C)C1O[Si](C)(C)C(C)(C)C (centres undefined) | HS 578T breast | 36.6 µM |
| COC(=O)C(COC(C)=O)NC(=O)/C=C/c1ccc(O)c(OC(C)=O)c1 (centres undefined) | HS 578T breast | > 100 µM |
| O=c1c2cc(S(=O)(=O)O)ccc2nc(COc2ccc(Oc3ccc(Cl)cc3Cl)cc2)n1-c1ccc(Cl)cc1Oc1c(Cl)cccc1Cl | HS 578T breast | 76.3 µM |
| Fc1ccc(-c2nn3ncccc3c2-c2ccnc(Nc3ccc4c(c3)OCCO4)n2)cc1 | HS 578T breast | > 23.2 µM |
| O=C(O)[C@@H]1CSCN1C(=O)[C@@H]1CCC(=S)N1 | HS 578T breast | > 100 µM |
| CCN(CC)CCCC(C)Nc1cnc(C(=O)Nc2cccc3ccc(OC)nc23)cn1 (centres undefined) | HS 578T breast | 28.5 µM |
| CC(C)CCCC(=O)CCCCCCC(=O)CCN(O)C(=O)C(N)CO (centres undefined) | HS 578T breast | 68.8 µM |
